System: P. berghei-ANKA-GFP-LucCON liver stage parasites in HepG2-A16-CD81EGFP cells
assay_summary: P. berghei liver stage Pb-Luc assay, Method 1 (UCSD, 1536-well)
Assay type: cell-based, Plasmodium berghei
conditions: Plasmodium berghei, 48 h, P. berghei liver stage, 3 µM compound treatment (10 mM stocks), replicate 2, normalized, average of 2 wells on a 1536 well plate; read-out: PbLuc 3uM growth rep2
observed_property: activity at 3 µM (%)
Answer with a number only, understood to be in %.

O=C(Nc1ccc(Nc2ccncc2)cc1)c1ccc(Nc2ccnc3ccc([N+](=O)[O-])cc23)cc1 [MLS000766132-01]
98

Query: Answer with the recorded activity at 3 µM of Cc1ccnc(NC(=O)c2cccc(S(=O)(=O)N3CCCc4ccccc43)c2)c1 [MLS001159724-01] only.
Response: 52

# credit: paper PMC7822874
